Origin of the recorded values: the MegaScale stability set (Tsuboyama et al. 2023)

B1: EEHEE_rd4_0003 (parent)
chain: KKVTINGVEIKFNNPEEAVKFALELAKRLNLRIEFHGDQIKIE

Variants of: B1
assay.text: folding stability dG (cDNA display proteolysis); higher = more stable
test.context: PBS, room temperature
Measured folding stability dG accompanies every entry in the list below.
Give the quantity in kcal/mol, number only.

Below, 8 variants whose answers are already recorded.
variant.id: P15Q
folding stability dG [kcal/mol]: 2.48
//
variant.id: E34W
folding stability dG [kcal/mol]: 2.62
//
variant.id: T4I
folding stability dG [kcal/mol]: 3
//
variant.id: L31Y
folding stability dG [kcal/mol]: 2.14
//
variant.id: V19L
folding stability dG [kcal/mol]: 3.07
//
variant.id: I33T
folding stability dG [kcal/mol]: 1.31
//
variant.id: K11E
folding stability dG [kcal/mol]: 2.77
//
variant.id: N13C
folding stability dG [kcal/mol]: 3.31

From here, focus on the item given below.
Request: Quick one: folding stability dG of `F21W` ?
Result: 2.81
